Reference source for all entries: PubChem BioAssay AID1963867

- Tested on: KRAS-mutant PDC tumor spheroid with HUVEC/MSC, viability;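 note: spheroids exposed to agents for seven days before reading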
- assay info: Anticancer human tumor 327498-153-R-J2-PDC patient-derived uterine carcinosarcoma cell line growth inhibition [KRAS2]
- experimental context: curve of first compound; second compound 3.16 µM
Reported values of IC50 for individual entries
recorded endpoint: IC50

compound: Cn1ncnc1[C@H]1c2n[nH]c(=O)c3cc(F)cc(c23)N[C@@H]1c1ccc(F)cc1 + C=CC(=O)N1CCN(c2nc(OCC3CCCN3C)nc3c2CCN(c2cccc4cccc(C)c24)C3)CC1CC#N
recorded endpoint: IC50
experimental value: < 0.316 nM

compound: COc1cc(Nc2ncc3c(n2)-c2ccc(Cl)cc2C(c2c(F)cccc2OC)=NC3)ccc1C(=O)O + CNCc1ccccc1-c1csc(C(C)Nc2nc(C)nc3cc(OC)c(OC)cc23)c1
recorded endpoint: IC50
experimental value: < 31.6 nM

compound: COC(=O)c1ccc2c(C(=Nc3ccc(N(C)C(=O)CN4CCN(C)CC4)cc3)c3ccccc3)c(O)[nH]c2c1 + CNCc1ccccc1-c1csc(C(C)Nc2nc(C)nc3cc(OC)c(OC)cc23)c1
recorded endpoint: IC50
experimental value: < 31.6 nM

compound: O=C(c1cc(Cc2n[nH]c(=O)c3ccccc23)ccc1F)N1CCN(C(=O)C2CC2)CC1 + CC1OCC2(CCN(c3cnc(Sc4ccnc(N)c4Cl)c(N)n3)CC2)C1N
recorded endpoint: IC50
experimental value: < 31.6 nM

compound: CC(=O)OC12COC1CC(O)C1(C)C(=O)C(O)C3=C(C)C(OC(=O)C(O)C(NC(=O)OC(C)(C)C)c4ccccc4)CC(O)(C(OC(=O)c4ccccc4)C21)C3(C)C (configuration not stated) + CNCc1ccccc1-c1csc(C(C)Nc2nc(C)nc3cc(OC)c(OC)cc23)c1
recorded endpoint: IC50
experimental value: < 10 nM

compound: CC(=O)Nc1cccc(-n2c(=O)n(C3CC3)c(=O)c3c(Nc4ccc(I)cc4F)n(C)c(=O)c(C)c32)c1 + CNCc1ccccc1-c1csc(C(C)Nc2nc(C)nc3cc(OC)c(OC)cc23)c1
recorded endpoint: IC50
experimental value: < 0.1 nM

compound: Cn1ncnc1[C@H]1c2n[nH]c(=O)c3cc(F)cc(c23)N[C@@H]1c1ccc(F)cc1 + CNCc1ccccc1-c1csc(C(C)Nc2nc(C)nc3cc(OC)c(OC)cc23)c1
recorded endpoint: IC50
experimental value: < 0.316 nM

compound: COC(=O)c1ccc2c(C(=Nc3ccc(N(C)C(=O)CN4CCN(C)CC4)cc3)c3ccccc3)c(O)[nH]c2c1 + COc1cc2nc(C)nc(NC(C)c3cc(N)cc(C(F)(F)F)c3)c2cc1OC1CCOC1
recorded endpoint: IC50
experimental value: 585 nM

compound: CC1(C)CCC(CN2CCN(c3ccc(C(=O)NS(=O)(=O)c4ccc(NCC5CCOCC5)c([N+](=O)[O-])c4)c(Oc4cnc5[nH]ccc5c4)c3)CC2)=C(c2ccc(Cl)cc2)C1 + COc1cc2nc(C)nc(NC(C)c3cc(N)cc(C(F)(F)F)c3)c2cc1OC1CCOC1
recorded endpoint: IC50
experimental value: 1490 nM

compound: Cn1nccc1Nc1nccc(-c2cc3c(s2)C(C)(C)N(CCN2CCOCC2)C3=O)n1 + CC1OCC2(CCN(c3cnc(Sc4ccnc(N)c4Cl)c(N)n3)CC2)C1N
recorded endpoint: IC50
experimental value: < 31.6 nM

compound: CC(C)NCC(C(=O)N1CCN(c2ncnc3c2C(C)CC3O)CC1)c1ccc(Cl)cc1 (configuration not stated) + CC1OCC2(CCN(c3cnc(Sc4ccnc(N)c4Cl)c(N)n3)CC2)C1N
recorded endpoint: IC50
experimental value: < 31.6 nM

compound: O=C(c1cc(Cc2n[nH]c(=O)c3ccccc23)ccc1F)N1CCN(C(=O)C2CC2)CC1 + C=CC(=O)N1CCN(c2nc(=O)n(-c3c(C)ccnc3C(C)C)c3nc(-c4c(O)cccc4F)c(F)cc23)C(C)C1
recorded endpoint: IC50
experimental value: 488 nM

compound: CC(=O)OC12COC1CC(O)C1(C)C(=O)C(O)C3=C(C)C(OC(=O)C(O)C(NC(=O)OC(C)(C)C)c4ccccc4)CC(O)(C(OC(=O)c4ccccc4)C21)C3(C)C (configuration not stated) + C=CC(=O)N1CCN(c2nc(=O)n(-c3c(C)ccnc3C(C)C)c3nc(-c4c(O)cccc4F)c(F)cc23)C(C)C1
recorded endpoint: IC50
experimental value: < 10 nM

compound: Cn1ncnc1[C@H]1c2n[nH]c(=O)c3cc(F)cc(c23)N[C@@H]1c1ccc(F)cc1 + C=CC(=O)N1CCN(c2nc(=O)n(-c3c(C)ccnc3C(C)C)c3nc(-c4c(O)cccc4F)c(F)cc23)C(C)C1
recorded endpoint: IC50
experimental value: 1.74 nM

compound: COC(=O)c1ccc2c(C(=Nc3ccc(N(C)C(=O)CN4CCN(C)CC4)cc3)c3ccccc3)c(O)[nH]c2c1 + C=CC(=O)N1CCN(c2nc(=O)n(-c3c(C)ccnc3C(C)C)c3nc(-c4c(O)cccc4F)c(F)cc23)C(C)C1
recorded endpoint: IC50
experimental value: < 31.6 nM

compound: Cn1nccc1Nc1nccc(-c2cc3c(s2)C(C)(C)N(CCN2CCOCC2)C3=O)n1 + C=CC(=O)N1CCN(c2nc(OCC3CCCN3C)nc3c2CCN(c2cccc4cccc(C)c24)C3)CC1CC#N
recorded endpoint: IC50
experimental value: < 31.6 nM

compound: CC(C)n1nc(-c2ccc3oc(N)nc3c2)c2c(N)ncnc21 + C=CC(=O)N1CCN(c2nc(=O)n(-c3c(C)ccnc3C(C)C)c3nc(-c4c(O)cccc4F)c(F)cc23)C(C)C1
recorded endpoint: IC50
experimental value: < 0.316 nM
